# System: UO-31 renal
# Test Details: NCI tumour cell line growth inhibition, 48 h
The entries below are paired with their reported TGI.

{"columns": ["Compound", "Target Or System", "TGI"],
 "data": [
  ["OC[C@H]1O[C@@H]2O[C@@](COCc3ccccc3)([C@H](OCc3ccccc3)[C@H]2O)[C@@H]1OCc1ccccc1", "UO-31 renal", "29.4 µM"],
  ["COc1cnc2c(c1)C(=O)c1c-2n(CCCNC2=NCCS2)c(=O)c2cc([N+](=O)[O-])ccc12", "UO-31 renal", "1.19 µM"],
  ["COc1cc(N(CCC#N)CCC#N)ccc1/C(N=Nc1ccc(Cl)cc1)=N/NC(=O)c1cc(Br)ccc1O", "UO-31 renal", "> 150 mg/L"],
  ["C#CC1/C(=C\\C(=O)OC)CCCC1O (configuration not stated)", "UO-31 renal", "> 100 µM"],
  ["CC(O)CNC(=O)C(C)Oc1ccc(OCC2CCCCC2)cc1 (configuration not stated)", "UO-31 renal", "> 100 µM"],
  ["Nc1c(C(=O)N/N=C/c2ccccc2)sc(=S)n1-c1ccccc1", "UO-31 renal", "> 100 µM"],
  ["O=C1NC2c3c(I)sc(I)c3C(O)C2O1 (configuration not stated)", "UO-31 renal", "> 100 µM"],
  ["O=C(/C=C/c1ccc[nH]1)c1ccc(-n2ccc(C(F)(F)F)n2)cc1", "UO-31 renal", "2.4 µM"],
  ["O=C(O)C(Cl)(Cl)Cl", "UO-31 renal", "> 100 µM"],
  ["N#CC(C(=O)/C(=N\\NC(N)=O)C(C#N)c1ccc(Cl)cc1)c1ccc(Cl)cc1 (configuration not stated)", "UO-31 renal", "> 100 µM"],
  ["Oc1cc(Cl)cc2cccnc12", "UO-31 renal", "> 100 µM"],
  ["CCCNc1ncnc2c1ncn2C", "UO-31 renal", "> 100 µM"]
]}

* * *

# Test system: HS 578T breast
# Test Details: NCI tumour cell line growth inhibition, 48 h
The entries below are paired with their reported GI50.

{"columns": ["Compound", "Target Or System", "GI50"],
 "data": [
  ["CC(C)(/C=C(\\C#N)C(=O)N1CCC[C@@H](n2nc(-c3ccc(Oc4ccccc4)cc3F)c3c(N)ncnc32)C1)N1CCN(C2COC2)CC1", "HS 578T breast", "4.67 µM"],
  ["COc1cc(C(=O)N2CCN(C(=O)c3cc(OC)c(OC)c(OC)c3)C2=S)cc(OC)c1OC", "HS 578T breast", "24.7 µM"],
  ["O=C(Nc1cccc(C(F)(F)F)c1)c1ccc(NC2=C(Cl)C(=O)N(Cc3ccc(Cl)cc3Cl)C2=O)cc1", "HS 578T breast", "2.88 µM"],
  ["N=c1c2c(-c3ccccc3)c(-c3ccccc3)n(Cc3ccccc3)c2ncn1C1CCC(O)CC1 (stereo not given)", "HS 578T breast", "1.57 µM"],
  ["NC(N)=N/N=C/c1c(Cl)cccc1Cl", "HS 578T breast", "18 µM"]
]}

* * *

# Tested on: 786-0 renal
# Test Details: NCI tumour cell line growth inhibition, 48 h
The entries below are paired with their reported TGI.

{"columns": ["Compound", "Target Or System", "TGI"],
 "data": [
  ["CC(NC(=O)Cc1ccccc1)NC(=O)C(C)C(=O)Nc1ccccc1 (stereo unspecified)", "786-0 renal", "> 100 µM"],
  ["C#CC1/C(=C\\C(=O)OC)CCCC1O (stereo unspecified)", "786-0 renal", "> 100 µM"],
  ["Cc1nc(Nc2cccnc2)sc1C(=O)/C=C/c1ccc(F)cc1", "786-0 renal", "19.4 µM"],
  ["CC(=O)ON1CCCC(P(=O)(OCCSC(=O)C(C)(C)C)OCCSC(=O)C(C)(C)C)C1=O (stereo unspecified)", "786-0 renal", "90.4 µM"],
  ["O=C1C=C/C(=N\\N=C(c2ccccc2)c2ccccc2)O1", "786-0 renal", "> 10 µM"],
  ["Cc1nn(-c2ccccc2)c2c1C(c1cc3ccccc3nc1Cl)NC(=O)N2 (stereo unspecified)", "786-0 renal", "35.2 µM"],
  ["CCCCCCCCCCCCCCCCNc1cccc2ccccc12", "786-0 renal", "> 100 µM"],
  ["COC(=O)[C@]12CC[C@@H](C)[C@H](C)[C@@H]1C1=CC[C@@H]3[C@@]4(C)C[C@@H](O)[C@H](O)[C@@](C)(CO)C4=CC[C@@]3(C)[C@]1(C)CC2", "786-0 renal", "34.5 µM"],
  ["COc1ccc2c(c1OCC(=O)O)C(=O)C(CCC(=O)O)CC2 (stereo unspecified)", "786-0 renal", "> 100 µM"],
  ["C=C1C(=O)CC2C1CC(=O)/C(C)=C/CCC(C)(O)C2O (stereo unspecified)", "786-0 renal", "7.91 µM"],
  ["COc1cc2c(cc1OC)C1C3CCCCC3CCN1CC2 (stereo unspecified)", "786-0 renal", "> 100 µM"],
  ["O=C1OC(C2Cc3ccc4ccccc4c3C2=O)c2ccccc21 (stereo unspecified)", "786-0 renal", "> 100 µM"],
  ["CCOc1cc(/C=C2/C(C)=NN(c3cccc(Cl)c3)/C2=N/c2nc3ccccc3s2)ccc1O", "786-0 renal", "> 100 µM"],
  ["Cc1c(N(C)C)ccc2c(=O)c3cccc(CC(=O)O)c3oc12", "786-0 renal", "> 100 µM"],
  ["CSC1=N/C(=C\\c2ccc(C)cc2)C(=O)N1CN1CCCCC1", "786-0 renal", "> 100 µM"],
  ["COc1ccc(C2OC(c3ccncc3)=NN2C)cc1F (stereo unspecified)", "786-0 renal", "> 100 µM"],
  ["On1c(-c2ccccc2)c(-c2ccccc2N2CCCC2)c2ccccc21", "786-0 renal", "> 100 µM"],
  ["O=C(c1ccco1)c1c(C(F)(F)F)nc2ccc(Cl)cc2[n+]1[O-]", "786-0 renal", "> 100 µM"],
  ["CC1=CCC([C@@](C)(O)CCCC(C)(C)N=C=S)CC1 (stereo partly specified)", "786-0 renal", "31.6 µM"],
  ["CCN1CCN(c2cc(C)c3cc(NC(=O)c4ccc(OC)c(OC)c4)ccc3n2)CC1", "786-0 renal", "> 55.3 µM"],
  ["Cc1ccc2nc(/C(=C/c3ccc(/C=C(\\NC(=O)c4ccccc4)c4nc5ccc(C)cc5[nH]4)c(C)c3)NC(=O)c3ccccc3)[nH]c2c1", "786-0 renal", "60.4 µM"]
]}

The values you see were collected from PubChem BioAssay (NCI).
